Recorded values, source ChEMBL document CHEMBL5463723.

Target: MAO-A (Homo sapiens)
Sequence (P21397 whole entry): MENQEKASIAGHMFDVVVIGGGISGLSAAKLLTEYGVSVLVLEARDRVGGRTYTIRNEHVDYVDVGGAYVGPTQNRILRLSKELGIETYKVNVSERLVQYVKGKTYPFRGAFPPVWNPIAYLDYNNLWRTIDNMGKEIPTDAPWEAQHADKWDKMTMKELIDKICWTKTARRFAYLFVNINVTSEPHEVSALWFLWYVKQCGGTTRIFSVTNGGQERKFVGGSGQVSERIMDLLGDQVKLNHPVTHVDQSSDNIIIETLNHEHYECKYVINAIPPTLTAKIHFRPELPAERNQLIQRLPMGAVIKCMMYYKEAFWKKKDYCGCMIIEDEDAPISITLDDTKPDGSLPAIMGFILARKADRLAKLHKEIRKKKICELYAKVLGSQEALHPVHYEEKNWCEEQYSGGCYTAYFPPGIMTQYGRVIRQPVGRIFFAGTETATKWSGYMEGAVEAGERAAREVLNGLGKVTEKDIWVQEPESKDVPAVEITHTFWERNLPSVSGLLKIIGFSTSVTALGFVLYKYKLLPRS
Assay: Agonist activity in the Eurofins Cerep SafetyScreen44 (BI) against MAO-A_ANTAG by Scintillation counting (Cerep_443)
Set-up: scale not given: the % may be the effect or the level left
Details: rat; compound concentration 10 uM; target entry is the homologue from another species; read-out: % Ctrl
RESULT_TYPE: activity at 10 µM

Lookup: Give the measured activity at 10 µM of `N=C(N)NCCC[C@@H](NC(=O)C(c1ccccc1)c1ccccc1)C(=O)NCc1ccc(CNC(N)=O)cc1` .
Found: 97% (not active)
